- MEASUREMENT_NOTES: NCI Yeast Anticancer Drug Screen. Data for the rad50 strain (AID 155);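 note: 0% = growth of vehicle-only cultures of the same strain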
- EXPERIMENTAL_CONDITIONS: S. cerevisiae rad50 strain growth inhibition; at 50.0 µM; hits give high values
About 79,000 compounds went through this panel and 15% of them were active in at least one assay; those are over-represented in the sample as a whole. Activity calls are given as the source filed them. Cut-off read from the data, not from the text of the source: active = growth inhibition above about 70%; inactive = the rest.
Listing of recorded growth inhibition by entry.

>>> df
                                   compound           observed
0  COc1cc(C(=O)Oc2c(C#N)sc3c2c(=O)n(-c2ccccc2)c(=S)n3-c2ccccc2)cc(OC)c1OC   22.8% (inactive)
1     CC(=O)c1cccc(NC(=O)Nc2cccc3ccccc23)c1   0.45% (inactive)
2  C=Cc1c2[n-]c(c1C)/C=c1\[n-]/c(c(C)c1C=C)=C\c1[n-]c(c(CCC(=O)O)c1C)/C=c1\[n-]/c(c(C)c1CCC(=O)O)=C\2.[Co]   14.8% (inactive)
3                     C/C(=N/O)c1ccc(O)cc1O  -16.7% (inactive)
4  CC(C)(C)C(Br)CC(N)=O (centres undefined)   22.1% (inactive)
5                       CN=C(N)SCCCSC(N)=NC   17.6% (inactive)
6  COc1cccc(N2CCN(CC(O)COc3ccc(N)cc3)CC2)c1 (centres undefined)   36.1% (inactive)
7          Cc1nc2c(cnn2C)c(=O)n1-c1ccccc1Cl   21.4% (inactive)

get_value(item= CSc1nn(C)c2cc(C)c3ccccc3[n+]12 , readout=growth inhibition) returns 20.4% (inactive)

get_value(item= COc1cc(C)c2cc(C)cc(C)c2n1 , readout=growth inhibition) returns 3.4% (inactive)

get_value(item= OCc1c(CO)c2cccn2c2c1cnn2-c1ccccc1 , readout=growth inhibition) returns 11.3% (inactive)

get_value(item= Cc1sc2ccnc(C)c2c1S(=O)(=O)O , readout=growth inhibition) returns 5.3% (inactive)

get_value(item= O=c1[nH]c(=O)n(C2OC(COP(=O)(O)OP(=O)(O)O)C(O)C2O)cc1F (centres undefined) , readout=growth inhibition) returns 1.4% (inactive)

get_value(item= O=[N+]([O-])c1ccccc1N=C=S , readout=growth inhibition) returns 9.5% (inactive)

get_value(item= CCSc1ccc2c3c(cccc13)C(=O)N(CCc1ccccn1)C2=O , readout=growth inhibition) returns -0.6% (inactive)

get_value(item= OCc1ccccc1CO , readout=growth inhibition) returns -19.6% (inactive)

====

- MEASUREMENT_NOTES: NCI Yeast Anticancer Drug Screen. Data for the sgs1 mgt1 strain (AID 161);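 note: 0% = growth of cultures given vehicle only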
- EXPERIMENTAL_CONDITIONS: S. cerevisiae sgs1 mgt1 strain, at 50.0 µM, hits give high values
About 79,000 compounds went through this panel and 15% of them were active in at least one assay; those are over-represented in the sample as a whole.
MEASUREMENT_TYPE: growth inhibition (%)
Give the value in % but do not write % after it.

Please review the following examples before continuing.
In [3]: df
Out[3]:
                                   compound  observed
0                                 C#CC(N)=O      -0.6
1  COc1cc2c(cc1OC)C1(CCCl)C3CC4C(=CCOC5CC(=O)N2C1C54)CN3C(=O)Cc1ccccc1 (configuration not stated)      16.4
2         O=C(CCOP(=O)(NCCCl)NCCCl)c1ccccc1      0.25

get_value(item= CC(C)C(N)C(=O)Nc1nncs1 (configuration not stated) , readout=growth inhibition) returns -8

get_value(item= Cc1ncc(CO)c(/C=N\NC(N)=S)c1O , readout=growth inhibition) returns 8.3

get_value(item= NNC(=O)c1ccccc1Cl , readout=growth inhibition) returns -11.9

get_value(item= O=C(/C=C/c1c[nH]c2ccccc12)c1ccccc1[N+](=O)[O-] , readout=growth inhibition) returns 7.55

====

- MEASUREMENT_NOTES: NCI Yeast Anticancer Drug Screen. Data for the mec2-1 strain (AID 157)
- EXPERIMENTAL_CONDITIONS: S. cerevisiae mec2-1 strain, at 50.0 µM, hits give high values
Compounds without any hit were thinned out: in the full panel of roughly 79,000, 15% have a hit.
MEASUREMENT_TYPE: growth inhibition (%)
Give the value in % but do not write % after it.

Please review the following examples before continuing.
COMPOUND	growth inhibition [%]
Cc1nccc2cccc(CNC(C)C)c12	2.7
Cn1c(COc2ccc(/C=N\NC(=O)c3ccc(C(=O)N/N=C/c4ccc(OCc5c[n+]6ccccc6n5C)cc4)cc3)cc2)c[n+]2ccccc12	3.5
N=C(N)SCCCN	-14.7

# input for lookup
get_value(item= CCCCCCCCCCCCCCCCCC(=O)Nc1nc(N)nc(N)n1 , readout=growth inhibition) returns 15.1

====

- MEASUREMENT_NOTES: NCI Yeast Anticancer Drug Screen. Data for the cln2 rad14 strain (AID 165);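 note: 0% = growth equal to vehicle treated cultures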
- EXPERIMENTAL_CONDITIONS: S. cerevisiae cln2 rad14 strain, at 50.0 µM, hits give high values
The panel holds about 79,000 compounds, 15% with a hit somewhere; the sample as a whole holds those more often. Active and inactive are the calls of the source. Cut-off read from the data, not from the text of the source: active = growth inhibition above about 70%; inactive = the rest.
Listing of recorded growth inhibition by entry.

Please review the following examples before continuing.
>>> df
                           substance_smiles   measurement_type          observed
0      CN(C)CC(CN(C)C)C(=O)/C=C/c1ccc(O)cc1  growth inhibition  6.35% (inactive)
1  O=C(/C=C(\Cl)c1ccc2c(c1)OCO2)OC/C=C\c1ccc2c(c1)OCO2  growth inhibition  20.3% (inactive)

get_value(item= O=C(CC(=O)N(C(=O)c1ccccc1)c1ccc(Cl)cc1)N/N=C\c1ccccc1O , readout=growth inhibition) returns -1.85% (inactive)

====

- MEASUREMENT_NOTES: NCI Yeast Anticancer Drug Screen. Data for the rad50 strain (AID 155);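 note: 0% = growth of vehicle-only cultures of the same strain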
- EXPERIMENTAL_CONDITIONS: S. cerevisiae rad50 strain growth inhibition; at 50.0 µM; hits give high values
- Description: Growth inhibition of yeast strains with defined genetic alterations is measured as a screen for potential anti-cancer activity. Selected strains with alterations in DNA damage repair or cell cycle control were exposed to compounds and growth inhibition was measured relative to vehicle treated controls. The strain used in this assay is rad50
Compounds without any hit were thinned out: in the full panel of roughly 79,000, 15% have a hit.
MEASUREMENT_TYPE: growth inhibition (%)
Give the value in % but do not write % after it.

Please review the following examples before continuing.
>>> df
                                   molecule   measurement_type  observed
0   COc1cc(C(=O)n2ncc(C(C)=O)c2C)cc(OC)c1OC  growth inhibition     -3.75
1  Cc1ccccc1OCC1COCN(C(C)(C)C)CO1 (stereo not given)  growth inhibition     -13.5
2  CCN(CC)CCC(C)C(Cc1cccs1)OC(C)=O (stereo not given)  growth inhibition       4.1
3  C=C[C@]1(C)C[C@@H](OC(=O)CO)[C@@]2(C)[C@H](C)CC[C@]3(CCC(=O)[C@H]32)[C@@H](C)[C@@H]1O  growth inhibition     -28.6
4              CC(N)CCCO (stereo not given)  growth inhibition     -5.15
5  O=[N+]([O-])c1ccc2c(c1)Sc1ccccc1N2CCCCCl  growth inhibition       -24
6  CCOC(=O)c1nc2ccc(C(F)(F)F)cc2nc1NCc1ccc(OC)cc1  growth inhibition       4.6
7  O=[n+]1c2c(n([O-])c3cc(Cl)c(Cl)cc31)CCC2  growth inhibition      25.4

get_value(item= CC1(C)OC(C(CCl)OS(C)(=O)=O)C(C(CCl)OS(C)(=O)=O)O1 (stereo not given) , readout=growth inhibition) returns 4.2

get_value(item= O=C1/C=C2/C=CC=CN2C(=O)/C=C2/C=CC=CN12 , readout=growth inhibition) returns -1.6

get_value(item= COC(=O)N/N=C/c1ccccc1Cl , readout=growth inhibition) returns 4.55

get_value(item= CCCCCCCCO[Si](OCCCCCCCC)(OCCCCCCCC)OCCCCCCCC , readout=growth inhibition) returns -24.6

get_value(item= Cn1c(=O)c2c(nc(N/N=C/c3ccccc3C(=O)O)n2C)n(C)c1=O , readout=growth inhibition) returns -14.2

get_value(item= CCOC(=O)C1SC(=Nc2ccc(C)c(C)c2)N=C1C (stereo not given) , readout=growth inhibition) returns -20.2

get_value(item= O=[N+]([O-])C(/C=C(\Cl)[N+](=O)[O-])=C1Nc2ccccc2N1 , readout=growth inhibition) returns 29.9

====

- MEASUREMENT_NOTES: NCI Yeast Anticancer Drug Screen. Data for the mec2-1 strain (AID 157)
- EXPERIMENTAL_CONDITIONS: S. cerevisiae mec2-1 strain, at 50.0 µM, hits give high values
Compounds without any hit were thinned out: in the full panel of roughly 79,000, 15% have a hit.
MEASUREMENT_TYPE: growth inhibition (%)
Give the value in % but do not write % after it.

Please review the following examples before continuing.
>>> print(df.to_string())
                                   compound  observed
0          Cc1ccc(C(=O)N/N=C/c2ccccc2Cl)cc1      49.1
1  O=C(c1ccccc1)C(O)(c1ccccc1)C(c1ccccc1)c1ccccc1 (configuration not stated)      18.6
2  CN(C)Cc1cccc(C(F)(F)F)c1C(O)c1ccccc1 (configuration not stated)     -10.2
3  Cc1cc(NC(=O)NCCCCCCNC(=O)Nc2cc(C)on2)no1       1.2
4  C=CC1CC(NC(=O)OC)C(=O)O1 (configuration not stated)       5.2

get_value(item= O=C(/C=C/c1ccccc1)Nc1cc(Cl)ccc1Cl , readout=growth inhibition) returns 26.1

get_value(item= CCN1c2ccccc2CC(CCN(C(C)C)C(C)C)(C(N)=O)c2ccccc21 (configuration not stated) , readout=growth inhibition) returns 4.9

get_value(item= C[N+]1(C)CCCC(c2ccccc2)(c2ccccc2)C(O)C1 (configuration not stated) , readout=growth inhibition) returns 7.15

get_value(item= CCCCC1SC2=NCCN2C1(O)c1ccc(Cl)cc1 (configuration not stated) , readout=growth inhibition) returns 3.55

get_value(item= CCC[n+]1cccc(C#N)c1 , readout=growth inhibition) returns 5.4

get_value(item= COC1(OC)CC2C(=O)N(Cc3ccccc3)C1C(S(=O)(=O)c1ccccc1)C2C(C)S(=O)(=O)c1ccccc1 (configuration not stated) , readout=growth inhibition) returns -0.55

get_value(item= CCCCCC/C=C\CCCCCCCCCC1=CC(=O)C=C(OC)C1=O , readout=growth inhibition) returns -10.2
